test: in vivo; conditions: male, SD, rat, in vivo, tissue selectivity in the liver, fold lower than L4, AUCtissue/ΣAUCtissue; L2 vs L4
assay_endpoint: selectivity ratio
Write the number on its own, no unit after it.

Task: Would you kindly share the measured selectivity ratio for C=C(C)C1CCC(C)=CC1c1c(O)cc(CCCCC)cc1OC(=O)N(C)CC (stereo not shown) ?
Output: 1.8

---

experiment: in vivo; conditions: male, SD, rat, in vivo, po, 15 mg/kg
assay_endpoint: half-life

Task: Quick check: half-life of C=C(C)C1CCC(C)=CC1c1c(O)cc(CCCCC)cc1OC(=O)N1CCCC1 (centres unmarked) ?
Output: 3.09 h

Task: May I ask what half-life has been recorded for C=C(C)C1CCC(C)=CC1c1c(O)cc(CCCCC)cc1OC(=O)NC (centres unmarked) ?
Output: 2.7 h

Task: Would you kindly share the measured half-life for C=C(C)[C@@H]1CCC(C)=C[C@H]1c1c(O)cc(CCCCC)cc1O [CBD, Cannabidiol, reference compound] ?
Output: 3.7 h

Task: Can you share its half-life? I mean this compound: C=C(C)C1CCC(C)=CC1c1c(O)cc(CCCCC)cc1OC(=O)N(C)Cc1ccc(Cl)cc1 (centres unmarked)
Output: 2.17 h

Task: Give the measured half-life of C=C(C)C1CCC(C)=CC1c1c(O)cc(CCCCC)cc1OC(=O)N(C)CC (centres unmarked) .
Output: 2.64 h

---

assay: in vivo; details: male, SD, rat, in vivo, po, 15 mg/kg
Assign t whenever MRT last does not fall below 3 h; assign f whenever it does.

Task: Can C=C(C)C1CCC(C)=CC1c1c(O)cc(CCCCC)cc1OC(=O)N1CCCC1 (centres unmarked) [Compound L3] be said to have MRT last at or above 3 h?
Output: f

Task: State whether the measured MRT last reaches 3 h, counting equality as reaching it, for C=C(C)[C@@H]1CCC(C)=C[C@H]1c1c(O)cc(CCCCC)cc1O [CBD, Cannabidiol, reference compound]
Output: f

Task: Answer whether MRT last of C=C(C)C1CCC(C)=CC1c1c(O)cc(CCCCC)cc1OC(=O)NC (centres unmarked) [Compound L1] is greater than or equal to 3 h.
Output: f

Task: Could you verify whether the entry C=C(C)C1CCC(C)=CC1c1c(O)cc(CCCCC)cc1OC(=O)N(C)CC (centres unmarked) [Compound L2] shows MRT last of no less than 3 h?
Output: t

Task: Is the recorded value of MRT last equal to or greater than 3 h for this compound? C=C(C)C1CCC(C)=CC1c1c(O)cc(CCCCC)cc1OC(=O)N(C)Cc1ccc(Cl)cc1 (centres unmarked) [Compound L4]
Output: f

---

test: in vivo; details: male, SD, rat, in vivo, tissue selectivity in the brain, fold higher than L4, AUCtissue/ΣAUCtissue; L2 vs L4
assay_endpoint: selectivity ratio
Give the figure by itself; no unit, no explanation.

Task: Can you look up the measured selectivity ratio of C=C(C)C1CCC(C)=CC1c1c(O)cc(CCCCC)cc1OC(=O)N(C)CC (stereo not shown) for me?
Output: 21

---

Test: in vivo
Settings: rats, single intragastric 15 mg/kg, plasma
Protocol: Animal experiments were conducted in accordance with the National Institutes of Health Laboratory Animal Care and Use Guidelines. Male SPF SD rats from the Animal Center of Anhui Medical University (Hefei, China) were used for the experiment. […] Quantitative analysis using Dionex Ultimate 3000 chromatography hyphenated to Q-Exactive plus Orbitrap mass spectrometer system (Thermo Fisher Scientific, Waltham, MA, USA). […]
assay_endpoint: CL (mL/min/kg)
Report only the number, with the unit mL/min/kg understood.

Task: Can you share its CL? I mean this compound: C=C(C)[C@@H]1CCC(C)=C[C@H]1c1c(O)cc(CCCCC)cc1O [CBD, Cannabidiol, reference compound]
Output: 1492

Task: Give the measured CL of C=C(C)[C@@H]1CCC(C)=C[C@H]1c1c(O)cc(CCCCC)cc1O [L1→CBD] .
Output: 1718.8

Task: Field request: CL | item: C=C(C)C1CCC(C)=CC1c1c(O)cc(CCCCC)cc1OC(=O)N1CCCC1 (stereo not drawn)
Output: 1273

Task: Which CL value belongs to C=C(C)C1CCC(C)=CC1c1c(O)cc(CCCCC)cc1OC(=O)N(C)CC (stereo not drawn) ?
Output: 434.5

Task: Record request: CL value, item C=C(C)C1CCC(C)=CC1c1c(O)cc(CCCCC)cc1OC(=O)NC (stereo not drawn)
Output: 1353

Task: Query: CL; subject: C=C(C)C1CCC(C)=CC1c1c(O)cc(CCCCC)cc1OC(=O)N(C)Cc1ccc(Cl)cc1 (stereo not drawn)
Output: 483.2
